The reported numbers originate from the Immune Epitope Database (IEDB).

Target: HLA-B*51:01
Assay: IEDB peptide-MHC binding, purified MHC/competitive/radioactivity; filed as Kd, often an IC50 or EC50 that approximates it; bounds were set here for any values at or beyond the usual limits of such assays
Details: source organism: Dengue virus 3 Sri Lanka/1266/2000
measure: Kd (nM)
Give the number; nM is assumed, so skip it.

*Q* Please provide the recorded Kd for LPMTVAAMGV , tested on HLA-B*51:01.
*A* 633

* * *

Biological target: HLA-B*27:05
Assay: IEDB peptide-MHC binding, purified MHC/direct/fluorescence; filed as Kd, often an IC50 or EC50 that approximates it; bounds were set here for any values at or beyond the usual limits of such assays
Conditions: source organism: SARS-CoV1
measure: Kd (µM)
Give the number; µM is assumed, so skip it.

*Q* Data request, read-out Kd, for RLYYDSMSY
*A* 4.81

* * *

I'd appreciate it if you could supply pKd values for the items below.
Target: HLA-B*08:01
Experiment: IEDB peptide-MHC binding, purified MHC/competitive/radioactivity; filed as Kd, often an IC50 or EC50 that approximates it; bounds were set here for any values at or beyond the usual limits of such assays
Conditions: source organism: Vaccinia virus Copenhagen
Quick note: pKd means taking -log10 of the concentration in moles per liter.

*Q* Data request, read-out pKd, for LFLRRRCPL
*A* 9.90

*Q* Data request, read-out pKd, for SFRRFVNKL
*A* 5.86

*Q* Data request, read-out pKd, for HMAYSFQTF
*A* 6.13

*Q* Data request, read-out pKd, for YLFIRKNVI
*A* 9.15

* * *

Target: HLA-A*31:01
Assay: IEDB peptide-MHC binding, purified MHC/competitive/fluorescence; filed as Kd, often an IC50 or EC50 that approximates it; bounds were set here for any values at or beyond the usual limits of such assays
Conditions: source organism: Influenza A virus (A/81/HO)
pKd: −log10 of the molar value.
measure: pKd

*Q* Data request, read-out pKd, for ELRSRYWAI
*A* ≤ 4.70

* * *

Biological target: HLA-A*11:01
Assay: IEDB peptide-MHC binding, purified MHC/direct/fluorescence; filed as Kd, often an IC50 or EC50 that approximates it; bounds were set here for any values at or beyond the usual limits of such assays
Details: source organism: SARS-CoV1
measure: pKd
Quick note: pKd means taking -log10 of the concentration in moles per liter.

*Q* Data request, read-out pKd, for TSSDTYACW
*A* 4.71

* * *

Biological target: HLA-A*68:01
Assay: IEDB peptide-MHC binding, purified MHC/competitive/radioactivity; filed as Kd, often an IC50 or EC50 that approximates it; bounds were set here for any values at or beyond the usual limits of such assays
Details: source organism: Mammarenavirus machupoense
measure: Kd (µM)
Give the number; µM is assumed, so skip it.

*Q* Data request, read-out Kd, for EWMLIAAKMK
*A* 3.53

* * *

Biological target: HLA-B*46:01
Experiment: IEDB peptide-MHC binding, purified MHC/direct/fluorescence; filed as Kd, often an IC50 or EC50 that approximates it; bounds were set here for any values at or beyond the usual limits of such assays
Settings: source organism: Orthohantavirus andesense
measure: Kd

*Q* Data request, read-out Kd, for YLQAKSQVL
*A* ≥ 20 µM

* * *

Biological target: HLA-B*46:01
Experiment: IEDB peptide-MHC binding, purified MHC/direct/fluorescence; filed as Kd, often an IC50 or EC50 that approximates it; bounds were set here for any values at or beyond the usual limits of such assays
Conditions: source organism: Campylobacter jejuni
measure: Kd

*Q* Data request, read-out Kd, for SFWFFHPPY
*A* ≥ 20 µM

* * *

Target: HLA-A*30:02
Assay: IEDB peptide-MHC binding, purified MHC/competitive/radioactivity; filed as Kd, often an IC50 or EC50 that approximates it; bounds were set here for any values at or beyond the usual limits of such assays
Conditions: source organism: Dengue virus 3 Martinique/1243/1999
measure: pKd
Quick note: pKd means taking -log10 of the concentration in moles per liter.

*Q* Data request, read-out pKd, for GCGRGGWSY
*A* 6.36

* * *

Target: HLA-A*31:01
Assay: IEDB peptide-MHC binding, purified MHC/direct/fluorescence; filed as Kd, often an IC50 or EC50 that approximates it; bounds were set here for any values at or beyond the usual limits of such assays
Conditions: source organism: H9N2 subtype Influenza A virus (A/swine/Korea/S83/2004(H9N2))
measure: Kd

*Q* Data request, read-out Kd, for HFQKDAKVL
*A* ≥ 20 µM

* * *

Biological target: HLA-A*26:01
Experiment: IEDB peptide-MHC binding, purified MHC/competitive/fluorescence; filed as Kd, often an IC50 or EC50 that approximates it; bounds were set here for any values at or beyond the usual limits of such assays
Conditions: source organism: Mycobacterium tuberculosis variant bovis BCG str. Pasteur 1173P2
measure: Kd

*Q* Data request, read-out Kd, for RLAPEPVYT
*A* ≥ 20 µM

* * *

Molecular target: HLA-B*44:02
Experiment: IEDB peptide-MHC binding, purified MHC/direct/fluorescence; filed as Kd, often an IC50 or EC50 that approximates it; bounds were set here for any values at or beyond the usual limits of such assays
Settings: source organism: Yellow fever virus
measure: Kd

*Q* Data request, read-out Kd, for ERWFVRNPF
*A* ≥ 20 µM

* * *

Target: HLA-B*54:01
Test: IEDB peptide-MHC binding, purified MHC/competitive/radioactivity; filed as Kd, often an IC50 or EC50 that approximates it; bounds were set here for any values at or beyond the usual limits of such assays
Details: source organism: Mammarenavirus juninense
measure: Kd

*Q* Data request, read-out Kd, for HPDMDSLMI
*A* ≥ 23.2 µM

* * *

Biological target: HLA-A*32:01
Test: IEDB peptide-MHC binding, purified MHC/competitive/radioactivity; filed as Kd, often an IC50 or EC50 that approximates it; bounds were set here for any values at or beyond the usual limits of such assays
Details: source organism: Lymphocytic choriomeningitis virus (strain Armstrong)
measure: Kd (nM)
Give the number; nM is assumed, so skip it.

*Q* Data request, read-out Kd, for KVNTTIARY
*A* 634

* * *

Target: HLA-B*27:05
Experiment: IEDB peptide-MHC binding, purified MHC/direct/fluorescence; filed as Kd, often an IC50 or EC50 that approximates it; bounds were set here for any values at or beyond the usual limits of such assays
Settings: source organism: Corynebacterium glutamicum
measure: Kd

*Q* Please provide the recorded Kd for VLPVPGASV , tested on HLA-B*27:05.
*A* ≥ 20 µM

* * *

I'd appreciate it if you could supply pKd values for the items below.
Target: HLA-A*02:02
Assay: IEDB peptide-MHC binding, purified MHC/competitive/radioactivity; filed as Kd, often an IC50 or EC50 that approximates it; bounds were set here for any values at or beyond the usual limits of such assays
Conditions: source organism: Vaccinia virus WR
Quick note: pKd means taking -log10 of the concentration in moles per liter.

*Q* Data request, read-out pKd, for TAYIGTSNWT
*A* 5.75

*Q* Data request, read-out pKd, for MQKFTILEYL
*A* 6.79

*Q* Data request, read-out pKd, for EVRYIDITNI
*A* 4.89

*Q* Data request, read-out pKd, for RAFIYSIMET
*A* 7.09

*Q* Data request, read-out pKd, for WLTPFEKEFT
*A* 5.63

*Q* Data request, read-out pKd, for STVDVRNIV
*A* 5.20

*Q* Data request, read-out pKd, for SAVFKDSFL
*A* 6.64

*Q* Data request, read-out pKd, for YTRPEIDVL
*A* 6.94

*Q* Data request, read-out pKd, for FVMCLEAKT
*A* 6.22

*Q* Data request, read-out pKd, for GLYIPGTSVI
*A* 7.04

*Q* Data request, read-out pKd, for SISEINEWL
*A* 9.89

*Q* Data request, read-out pKd, for FVKENERVNV
*A* 6.73

*Q* Data request, read-out pKd, for CVRNLEELTT
*A* 4.90

*Q* Data request, read-out pKd, for NILMDSIFV
*A* 6.60

*Q* Data request, read-out pKd, for SICLDYIIV
*A* 5.84

* * *

Biological target: HLA-B*45:06
Assay: IEDB peptide-MHC binding, purified MHC/competitive/fluorescence; filed as Kd, often an IC50 or EC50 that approximates it; bounds were set here for any values at or beyond the usual limits of such assays
Details: source organism: Salmonella enterica subsp. enterica serovar Typhi
measure: Kd

*Q* Please provide the recorded Kd for WTFTPTTPL , tested on HLA-B*45:06.
*A* ≥ 5 µM

* * *

Target: HLA-A*31:01
Assay: IEDB peptide-MHC binding, purified MHC/direct/fluorescence; filed as Kd, often an IC50 or EC50 that approximates it; bounds were set here for any values at or beyond the usual limits of such assays
Conditions: source organism: Giardia lamblia ATCC 50803
measure: Kd

*Q* Please provide the recorded Kd for AEFPVGSTA , tested on HLA-A*31:01.
*A* ≥ 20 µM

*Q* Please provide the recorded Kd for RHIAIQVCY , tested on HLA-A*31:01.
*A* ≥ 20 µM

*Q* Please provide the recorded Kd for TTIEDILPK , tested on HLA-A*31:01.
*A* 2.09 µM

*Q* Please provide the recorded Kd for FMKVKFEAL , tested on HLA-A*31:01.
*A* ≥ 20 µM
